- Study System: T1, cynomolgus monkey CD19 on peripheral blood B cells (cynomolgus monkey (Macaca fascicularis), UniProt A0A2K5W8L9 20-557)
- T1 construct: whole, on cells; also called cynomolgus monkey B cells
- T1 sequence: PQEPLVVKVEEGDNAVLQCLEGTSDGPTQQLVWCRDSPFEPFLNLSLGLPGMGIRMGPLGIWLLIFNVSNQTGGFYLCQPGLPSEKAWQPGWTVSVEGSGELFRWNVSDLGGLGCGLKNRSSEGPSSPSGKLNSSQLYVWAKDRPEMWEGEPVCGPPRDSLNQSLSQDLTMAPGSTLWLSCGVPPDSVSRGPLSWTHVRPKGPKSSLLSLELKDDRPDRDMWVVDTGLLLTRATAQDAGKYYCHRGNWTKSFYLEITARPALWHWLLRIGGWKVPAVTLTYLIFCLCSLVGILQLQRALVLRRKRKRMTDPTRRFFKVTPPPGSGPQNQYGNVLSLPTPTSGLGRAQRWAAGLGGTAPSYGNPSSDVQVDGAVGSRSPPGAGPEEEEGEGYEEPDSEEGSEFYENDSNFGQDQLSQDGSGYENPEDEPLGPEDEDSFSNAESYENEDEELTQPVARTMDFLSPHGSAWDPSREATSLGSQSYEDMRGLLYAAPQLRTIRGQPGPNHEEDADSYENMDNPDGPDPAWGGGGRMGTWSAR
- Procedure Summary: FACS, cynomolgus PBMC, CD20+ B cells
Recorded Metric: Proportion of chimeric antibody positive cells to B cells (%) at 1 nM
Give the figure together with its unit, number first.

Binder	Measured Result
F3.81.2 (antibody, human IgG1, V domains shown, human-murine chimeric antibody, human IgG1) VH: QVQLQQPGAELVMPGASVKLSCKASAYTFTNYWMHWVKQRPGHGLEWIGEIDPSDSYTDYNQNFKAKATLTVDKSSSTAYMQLSSLTSEDSAVYYCARLMGRYFDVWGTGTTVTVSS VL: DIVMTQSHKFMSTSVGDRVSITCKASQDVSAAVAWYQQKPGQSPKLLINSASYRYTGVPDRFTGSGSGTDFTFTISSVQAEDLAVYYCQQHYSTPLTFGAGTKLELR	7%
F3.13.2 (antibody, human IgG1, V domains shown, human-murine chimeric antibody, human IgG1) VH: DVQLQESGPGLMKPSQSLSLTCSVTGYSITSGYYWNWIRQFPGNKLEWMGYISYDGSNNYNPSLKNRFSITRDTSKNQFFLKLNSVTTEDTATYYCARRKLTGGPYFDYWGQGTTLTVSS VL: DIVLTQSPASLAVTLGQRATISCRASESVSFHGFHIMHWYQQKPGQPPKLLIYAASHLVSGVPDRFSGSGSETDFTLNIHPVEEEDAAAYFCQQSVEDPWTFGGGTKLEIK	1%
F1-mab003 (antibody, human IgG1, V domains shown, human-murine chimeric antibody, human IgG1) VH: EVQLQQSGPELVKPGASVKMSCKASGYTFTDYVMHWVRQTPGQGLEWIGYFNPYNDGTNYNEKFKVKATLTSDKSSTTAYMELSSLTSEDSAVYYCARGVYYYGRDFDYWGQGTTLTVSS VL: DVVLTQTPLSLPVSLGDQASISCRSSQSLENSNGNSYLNWYLQKPGQSPQLLIYRVSNRFSGVLDRFSGSGSGTDFTLKISRVEAEDLGVYFCLQITHVPWTFGGGTKLEIK	15%

Next item in the queue.
[ask] # get_value(readout='Proportion of chimeric antibody positive cells to B cells (%) at 1 nM', item= F3.124.7 (antibody, human IgG1, V domains shown, human-murine chimeric antibody, human IgG1) VH: EVQLQQSGPVLVKPGASVKMSCKASGYTFTDYYMNWVKQRHGKSLEWIGISNPYNGGTSYNQKFKDKATLTVDKSSSTAYMELNSLTSEDSAVYYCAREGGTAQPTSGMDYWGQGTSVTVSS VL: NIMMTQSPSSLAVSAGEKVTMSCKSSQSVLYSSNQKNYLAWYQQKPGQSPKLLIYWASTRESGVPDRFTGSGSGTDFTLTISSVQPEDPAVYYCHQYRSSYTFGGGTKLEIK )
[reply] 23%
